# Test system: IGROV1 ovarian
# assay-details: NCI-60 one-dose screen, 48 h
# particulars: 10 µM
Compounds without any hit were thinned out: in the full panel of roughly 83,000, 20% have a hit. Activity calls are given as the source filed them. How the source made its calls: active means growth percent below 10; inactive means the rest.
# output must be one of 1 (yes) = active, 0 (no) = inactive

Recorded test outcome, item CC(C)c1[nH]nc2c(NCc3ccc(-c4ccccn4)cc3)nc(SCCN(C)C)nc12
0 (no)

Recorded test outcome, item CCN(CCCNC(=O)Cc1cc(=O)oc2cc(N(C)C)ccc12)CCNc1ccnc2cc(Cl)ccc12
0 (no)

Recorded test outcome, item CC(C)OCc1cc(CN2CCN(c3cccc(Cl)c3)CC2)c(O)c2ncccc12
1 (yes)

Recorded test outcome, item O=C1/C(=C/c2ccc(O)cc2)CSc2ccc(Cl)cc21
0 (no)

Recorded test outcome, item Nc1c(CNCc2nnn(Cc3ccccc3)c2N)nnn1Cc1ccccc1
0 (no)

Recorded test outcome, item COc1ccc(-c2nnc(N3CCN(C(=O)CN4CCN(c5ccc(Cl)cc5)CC4)CC3)nc2-c2ccc(OC)cc2)cc1
0 (no)

Recorded test outcome, item COc1cc(/C=C/C(=O)c2cc(-c3ccccc3)ccc2O)cc(OC)c1OC
0 (no)

Recorded test outcome, item O=C(Nc1cccc(Cl)c1)OCC(COC(=O)Nc1cccc(Cl)c1)(COC(=O)Nc1cccc(Cl)c1)[N+](=O)[O-]
0 (no)

Recorded test outcome, item O=C(O)CNS(=O)(=O)c1ccc(OCCOc2ccc(S(=O)(=O)NCC(=O)O)cc2)cc1
0 (no)

----------
# Test system: SNB-19 CNS
# assay-details: NCI-60 one-dose screen, 48 h
# particulars: 10 µM
About 83,000 compounds went through this panel and 20% of them were active in at least one assay; those are over-represented in the sample as a whole. Activity calls are given as the source filed them. How the source made its calls: active means growth percent below 10; inactive means the rest.
# output must be one of active, inactive

Recorded test outcome, item CCOC(=O)/C(C#N)=C(/C)C1CC1
inactive

Recorded test outcome, item CC(=O)OC1Oc2ccccc2-c2oc(=O)c(-c3cc(=O)oc4cc(O)ccc34)cc21 (stereo unspecified)
inactive

Recorded test outcome, item O=C(Nc1cccc(Cl)c1)Nc1cc2ncncc2cc1OCc1cccc(F)c1
inactive

Recorded test outcome, item O=CNc1c(Cl)cc2c(c1Cl)Cc1cc([N+](=O)[O-])ccc1-2
inactive

Recorded test outcome, item CC1(C)CC(OCCCC[P+](c2ccccc2)(c2ccccc2)c2ccccc2)CC(C)(C)N1O
active

Recorded test outcome, item O=S(=O)(O)C1(O)CCCCC1
inactive

----------
# Tested on: EKVX NSCLC
# assay-details: NCI-60 one-dose screen, 48 h (100 = growth as untreated, 0 = no growth, -100 = all killed)
# particulars: 10 µM
Compounds without any hit were thinned out: in the full panel of roughly 83,000, 20% have a hit.
reported-property: growth (%)
Field: numeric (%). Do not append units.

response.value for Oc1ccc(Cn2cc3c(c2-c2ccccc2)CCc2cnoc2-3)cc1 (field: growth) = 80.2

response.value for Clc1cc(Cl)c(OCCCCCCN2CCNCC2)c(Cl)c1 (field: growth) = 63.3

response.value for CN(C)c1ccc2c(c1)OC(N)=C(C#N)C2c1ccc2c(c1)CCCN2C (centres undefined) (field: growth) = 34.5

response.value for S=c1c2ncccc2c(-c2ccccn2)nn1Cc1ccccn1 (field: growth) = 99.3

response.value for COc1ccc(-c2nnc(SC/C(=N\O)c3ccccc3)o2)cc1 (field: growth) = 95.8

response.value for O=C(NNC(=O)c1ccncc1)Nc1ccc([N+](=O)[O-])cc1 (field: growth) = 91.6

response.value for CC(=O)Nc1ccc2c(c1)C(N1CC3CCC(CC3)C1)c1ccccc1-2 (centres undefined) (field: growth) = 88.5

response.value for COc1ccc(-c2nnc(N3CCN(C(=O)CN4CCN(c5ccc(Cl)cc5)CC4)CC3)nc2-c2ccc(OC)cc2)cc1 (field: growth) = 45.4

response.value for CNC(=S)Sc1ccc([N+](=O)[O-])cc1[N+](=O)[O-] (field: growth) = 72.1

----------
# Tested on: NCI/ADR-RES ovarian
# assay-details: NCI-60 one-dose screen, 48 h (100 = growth as untreated, 0 = no growth, -100 = all killed)
# particulars: 10 µM
# Method: Growth inhibition of the NCI/ADR-RES human […] tumor cell line is measured as a screen for anti-cancer activity. Cells are grown in 96 well plates and exposed to the test compound for 48 hours. Compounds are tested at a single concentration, which is 10^-5 M for most compounds. The reported endpoint is percent growth (GI% or GIPRCNT), where numbers from 0 - 100% represent growth inhibition, and numbers from -100% - 0 represent cell death. For example, a value of 40 represents 60% growth inhibition. […]
This is part of a sample that, as a whole, favours compounds with a hit. Of some 83,000 tested, about 20% had one in any assay.
Rule: 1 (yes) for growth not less than 60%, 0 (no) for anything less.

Has Nc1nc(SCC#CCCl)c2[nH]cnc2n1 a recorded growth greater than or equal to 60%?
1 (yes)

Has COc1nc2c(c(=O)[nH]1)C(c1ccc(Oc3ccnc4cc(Cl)ccc34)c(OC)c1)C=C(c1cc(OC)c(OC)c(OC)c1)N2 (stereo unspecified) a recorded growth greater than or equal to 60%?
1 (yes)

Has Cc1cc(Cl)ccc1Nc1nc(C(F)(F)F)ccc1C(=O)N/N=C/c1ccccc1Cl a recorded growth greater than or equal to 60%?
0 (no)

Has O=C(NC1CCCC1)c1ccc(N2CCC(NCc3cccc(C(F)(F)F)c3)CC2)cc1 a recorded growth greater than or equal to 60%?
1 (yes)

Has C=CCOc1ccc2c(c1)CC[C@@H]1[C@@H]2CC[C@]2(C)C(=O)/C(=N/O)C[C@@H]12 a recorded growth greater than or equal to 60%?
0 (no)

Has NC(=O)c1ccc(Br)o1 a recorded growth greater than or equal to 60%?
1 (yes)

Has COc1cc(OC)cc(N2CCN(C(=O)Nc3nc4cc(F)ccc4nc3OC)CC2)c1 a recorded growth greater than or equal to 60%?
0 (no)

Has COCCNCC(O)Cn1c2ccc(Cl)cc2c2cc(Cl)ccc21 (stereo unspecified) a recorded growth greater than or equal to 60%?
0 (no)

Has CC1(C)CC(=O)c2c(nc3ccc(Cl)cc3c2-c2ccccc2)C1 a recorded growth greater than or equal to 60%?
1 (yes)

Has C#Cc1ccc(-n2c(/C=C/c3cc(OC)c(OC)c(OC)c3)nc3ncccc3c2=O)cc1 a recorded growth greater than or equal to 60%?
0 (no)

Has NC1CCC(Nc2nc(NCc3cc(Cl)ccc3O)c3ncn(C4CCCC4)c3n2)CC1 (stereo unspecified) a recorded growth greater than or equal to 60%?
0 (no)

Has COC(=O)[C@]12CC[C@@H](C)[C@H](C)[C@@H]1C1=CC[C@@H]3[C@@]4(C)C[C@@H](O)[C@H](O)[C@@](C)(CO)[C@@H]4[C@H](O)C[C@@]3(C)[C@]1(C)CC2 a recorded growth greater than or equal to 60%?
0 (no)

Has Nc1ncncc1-c1ccc(F)cc1 a recorded growth greater than or equal to 60%?
1 (yes)

Has O=C(Nc1ccc(OS(=O)(=O)Cc2ccccc2)cc1)C12CC3CC(CC(C3)C1)C2 a recorded growth greater than or equal to 60%?
1 (yes)

Has COc1cc(C)c2sc3ccccc3c(=O)c2c1NCCN(C)C a recorded growth greater than or equal to 60%?
1 (yes)

Has Cc1nc2scc(-c3ccc(Cl)cc3)n2c(=O)c1CCN1CCOCC1 a recorded growth greater than or equal to 60%?
1 (yes)

Has Cc1ccc(NC(=O)/C=N/O)cc1C a recorded growth greater than or equal to 60%?
1 (yes)

Has COc1ccc(COC(=O)CC(C)C)cc1 a recorded growth greater than or equal to 60%?
1 (yes)

Has Cn1cnc([N+](=O)[O-])c1Sc1nnc(-c2ccccc2)c(-c2ccccc2)n1 a recorded growth greater than or equal to 60%?
1 (yes)

Has O=S(=O)(NC1c2ccccc2Oc2ccccc21)c1ccccc1 a recorded growth greater than or equal to 60%?
1 (yes)

Has COc1cc(-c2cc(/C=C/C(C)=O)[nH]n2)cc(OC)c1OC a recorded growth greater than or equal to 60%?
1 (yes)

----------
# System: PC-3 prostate
# assay-details: NCI-60 one-dose screen, 48 h
# particulars: 10 µM
This is part of a sample that, as a whole, favours compounds with a hit. Of some 83,000 tested, about 20% had one in any assay. The source made the active and inactive calls. How the source made its calls: active means growth percent below 10; inactive means the rest.
# output must be one of active, inactive

Recorded test outcome, item C[N+]1=C(/C=C/c2ccc(I)cc2)C(C)(C)c2ccccc21
inactive

Recorded test outcome, item COc1ccc(-c2nc(-c3ccccc3)c(-c3ccccc3)[nH]2)cc1OC1CCCC1
inactive

Recorded test outcome, item COc1ccc(S(=O)(=O)Nc2cc(/C=C\c3cc(OC)c(OC)c(OC)c3)ccc2OC)cc1
active

Recorded test outcome, item C[C@@H]1C(=O)N(C[C@H](Cc2ccccc2)NC(=O)OCc2ccccc2)[C@]1(Cc1ccccc1)C(=O)OCc1ccccc1
inactive

Recorded test outcome, item CCc1ccc(-c2nnc(COc3ccc(-c4nc5ccc(C)cc5[nH]4)cc3OC)o2)cc1
inactive

Recorded test outcome, item O=NN(CCCl)C(=O)Nc1ccc(NC(=O)N(CCCl)N=O)cc1
inactive

Recorded test outcome, item COc1ccc(-c2cc(/C=C3\C(=O)Nc4cc(Cl)ccc43)[nH]n2)cc1OC
inactive

Recorded test outcome, item COc1ccc(-c2nc(-c3nc4ccc(C)cc4[nH]3)c3ccccn23)cc1
inactive

Recorded test outcome, item COc1cc(C2C(C#N)=C(c3c[nH]c4ccccc34)Nc3nc(N)[nH]c(=O)c32)cc(OC)c1OC (centres undefined)
inactive

Recorded test outcome, item COc1cc(-c2cc(-c3cc(OC)c(OC)c(OC)c3)nc3nc(N)[nH]c(=O)c23)ccc1Oc1ccnc2cc(Cl)ccc12
inactive

Recorded test outcome, item Cc1c(C(=O)N[C@H](CO)Cc2ccccc2)[nH]c2ccc(Cl)cc2c1=O
inactive

Recorded test outcome, item COC(=O)[C@]12CC[C@@H](C)[C@H](C)[C@@H]1C1=CC[C@@H]3[C@@]4(C)CC(=O)[C@H](O)[C@@](C)(CO)[C@@H]4C(=O)C[C@@]3(C)[C@]1(C)CC2
active

Recorded test outcome, item COc1cc(N=C2C(=O)N(Cc3ccccc3)c3ccccc32)cc(OC)c1OC
inactive

Recorded test outcome, item N#CN1CC[C@H](C(=O)Nc2ncc(-c3ccccc3)s2)C1
inactive

Recorded test outcome, item CCOC(=O)Nc1ccc2c(c1)C(=O)N(CCOC)c1ccccc1O2
inactive

Recorded test outcome, item COc1ccc(Cn2cc3c(c2-c2cc(OC)c(OC)c(OC)c2)CCc2cnoc2-3)cc1[N+](=O)[O-]
inactive

Recorded test outcome, item FC(F)(F)c1ccc(-c2cnc(Cl)nc2NCc2cc(C(F)(F)F)cc(C(F)(F)F)c2)cc1
active

Recorded test outcome, item COc1cc(CSc2nc3ccc(Cl)cc3c(=O)n2Cc2ccccc2)cc(OC)c1OC
inactive

Recorded test outcome, item CCNC(=S)NN
inactive
